All values here come from ChEMBL document CHEMBL3217667.

Listed here are compounds together with their documented selectivity ratio.
Protocol details: Selectivity index, ratio of IC50 for African green monkey Vero cells to IC50 for chloroquine-sensitive Plasmodium falciparum D6
Type: toxicity, cell-based
Run conditions: read-out: Ratio IC50

compound="COc1cc(NC(C)CCCNC(C)CCCNC(C)CCCNC(C)CCCN)c2ncccc2c1.Cl (stereo not drawn)" reported="> 10.3"

Query string: Which selectivity ratio is reported for this compound? CCCCOc1c(OC)cc(NC(C)CCCNC(C)CCCNC(C)CCCN)c2nccc(CC)c12.Cl (stereo not drawn)
Result string: > 44

Query string: What about COc1cc(NC(C)CCCNC(C)CCCNC(C)CCCNC(C)CCCN)c2nc(C(C)(C)C)ccc2c1.Cl (stereo not drawn) ?
Result string: > 34

Query string: What about CCCCOc1c(OC)cc(NC(C)CCCNC(C)CCCNC(C)CCCNC(C)CCCN)c2nccc(CC)c12.Cl (stereo not drawn) ?
Result string: > 48.5

Query string: What about COc1cc(NC(C)CCCNC(C)CCCNC(C)CCCN)c2ncccc2c1.Cl (stereo not drawn) ?
Result string: > 9.1

Query string: What about CCCCCCCCOc1c(OC)cc(NC(C)CCCNC(C)CCCN)c2nccc(CC)c12.Cl (stereo not drawn) ?
Result string: > 25.8

Query string: What about CCCCOc1c(OC)cc(NC(C)CCCNC(C)CCCN)c2nccc(CC)c12.Cl (stereo not drawn) ?
Result string: > 39.6

Query string: What about CCCCCOc1c(OC)cc(NC(C)CCCNC(C)CCCNC(C)CCCNC(C)CCCN)c2nccc(CC)c12.Cl (stereo not drawn) ?
Result string: > 54

Query string: What about C[C@@H]1CC[C@H]2[C@@H](C)C(=O)O[C@@H]3O[C@@]4(C)CC[C@@H]1[C@]32OO4 ?
Result string: 1560

Query string: What about CCCCCOc1c(OC)cc(NC(C)CCCNC(C)CCCN)c2nccc(CC)c12.Cl (stereo not drawn) ?
Result string: > 45.7

Query string: What about CCCCCOc1c(OC)cc(NC(C)CCCNC(C)CCCNC(C)CCCN)c2nccc(CC)c12.Cl (stereo not drawn) ?
Result string: > 41.7

Query string: What about COc1cc(NC(C)CCCNC(C)CCCN)c2nc(C(C)(C)C)ccc2c1.Cl (stereo not drawn) ?
Result string: > 125

Query string: What about COc1cc(NC(C)CCCNC(C)CCCN)c2ncccc2c1.Cl (stereo not drawn) ?
Result string: > 41.7
